B1: Twister Ribozyme (parent)
chain: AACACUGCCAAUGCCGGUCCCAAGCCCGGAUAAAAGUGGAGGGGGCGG

Variants of: B1
Test: self-cleavage, relative activity (ratio to wild type); higher = more cleavage; co-transcriptional
// classify(record): look up self-cleavage in ranges LOW: < 0.2; MEDIUM: ≥ 0.2 and < 0.6; HIGH: ≥ 0.6

# example entries with known answers
AACACUGCCAAUGCCGGUCCCAAGUCCGGAUAAAAGUGGAAGGGGCGG [C25U G41A]; LOW
AACACUGCCAAUGCCGGACCCCAGCCCGGAUAAAAGUGGAGGGGGCGG [U18A A22C]; MEDIUM
AACACUGUCAAUGCCGGUCCCAAGCCCAGAUAAAAGUGGAGGGGGCGG [C8U G28A]; MEDIUM
AACACUACCAAUGCCGGUCCCAAGCCCGGAUAAAAGAGGAGGGGGCGG [G7A U37A]; LOW
AACACUGCCAAUGCCGGUCCCAAGCCCGGAUAAAAGUGUAGGGCGCGG [G39U G44C]; LOW

Inquiry: # bin label for AACACUGCCAAUGCCGGUCCCAAGCCCGGAUCAUAGUGGAGGGGGCGG [A32C A34U]
Reply text: HIGH

Inquiry: Hi, small favor: classify AACACUGCCAGUGCCGGUCCCAAGCCCGGAUAAAAGUGGAGGGGGCUG [A11G G47U] by its self-cleavage when you get a moment.
Reply text: HIGH

Inquiry: Which category does the recorded self-cleavage put AACACUGCCAAUGCCGGGCCCAAGCCCGGAUAAAAGUGGAGGUGGCGG [U18G G43U] in?
Reply text: LOW
